Data origin, for the record: paper PMC12040169

# MEASUREMENT_PROTOCOL: in vitro
# COND: human, hela cells, % viability
QUANTITY_MEASURED: viability at 28.5 h, 10 µM (%)
Numbers only here, please. The scale is %.

Prompt: Give viability at 28.5 h, 10 µM for `Cc1cc(NC(=O)CS(=O)(=O)Cc2cccc(C(F)(F)F)c2)no1`
Completion: 99.3

Prompt: Give viability at 28.5 h, 10 µM for CCC(=O)NC(c1ccc(C)cc1)c1cc([N+](=O)[O-])c2cccnc2c1O (stereo not drawn)
Completion: 121

Prompt: Give viability at 28.5 h, 10 µM for `COc1ccc(CN2CCCN(C(=O)c3ccnc(Cl)c3)CC2)cc1`
Completion: 85.4

Prompt: Give viability at 28.5 h, 10 µM for O=C(O)c1ccc(N2C(=O)CC(S/C(=N\c3ccccc3)Nc3ccccc3)C2=O)cc1 (stereo not drawn)
Completion: 107

Prompt: Give viability at 28.5 h, 10 µM for CCOc1ccccc1CNCc1ccccn1 [CBK268041C]
Completion: 103

Prompt: Give viability at 28.5 h, 10 µM for Cc1ccc(S(=O)(=O)NC2c3cccc4cccc(c34)C2Sc2ccccn2)cc1 (stereo not drawn)
Completion: 91.6

Prompt: Give viability at 28.5 h, 10 µM for `O=C(c1cccc(C(F)(F)F)c1)N1CCCCCC1`
Completion: 98.4

Prompt: Give viability at 28.5 h, 10 µM for `O=c1cc(NCCCN2CCN(Cc3ccccc3)CC2)c2ccccc2o1`
Completion: 81

Prompt: Give viability at 28.5 h, 10 µM for `CN(C)CCN(C)C(=O)c1ccc(-c2ccco2)nc1N(C)C`
Completion: 84.1

Prompt: Give viability at 28.5 h, 10 µM for Cn1ccnc1C1(O)CC2CCC(C1)N2C(=O)c1cccc(F)c1 (stereo not drawn)
Completion: 93.9

Prompt: Give viability at 28.5 h, 10 µM for CCCN(CC1CCCO1)C(=O)c1cc2ccc(OC)cc2n1C (stereo not drawn)
Completion: 92.8

Prompt: Give viability at 28.5 h, 10 µM for `CCN(c1ccccc1C(=O)O)S(=O)(=O)/C=C/c1ccccc1`
Completion: 96.7

====

# MEASUREMENT_PROTOCOL: in vitro
# COND: human, hela cells, % viability
QUANTITY_MEASURED: viability at 28.5 h, 10 µM (%)
Numbers only here, please. The scale is %.

Prompt: Give viability at 28.5 h, 10 µM for `Cc1cc(C(F)(F)F)nn1CCCNC(=O)c1cc(-c2ccccc2)nc2ccccc12`
Completion: 85

Prompt: Give viability at 28.5 h, 10 µM for `Cc1ccc(OCCn2cncc2-c2cn(C)nc2C)cc1`
Completion: 93.7

Prompt: Give viability at 28.5 h, 10 µM for `O=C(Nc1ccc2oc(-c3cccnc3)nc2c1)c1ccc(-c2ccccc2OC(F)(F)F)o1`
Completion: 86.5

Prompt: Give viability at 28.5 h, 10 µM for Cc1ccc(SCCCNCCN(C)C)cc1 [CBK267807C]
Completion: 92.2

Prompt: Give viability at 28.5 h, 10 µM for `COc1cc(CN2CCN(C(=O)c3cccc4ccccc34)CC2)cc(OC)c1O`
Completion: 103

Prompt: Give viability at 28.5 h, 10 µM for COc1ccc(C(NC(=O)N2CCN(C(=O)NCc3ccccc3Cl)CC2)c2ccccc2C)cn1 (stereo not shown)
Completion: 88.7

Prompt: Give viability at 28.5 h, 10 µM for `CCN(CC)C(=O)CN1CCC(Oc2nccnc2OCCN2CCOCC2)CC1`
Completion: 93.4

Prompt: Give viability at 28.5 h, 10 µM for `O=C(c1ccco1)N1CCC(c2nnc3n2CCCCC3)CC1`
Completion: 94.3

Prompt: Give viability at 28.5 h, 10 µM for Cc1nnc(CN(CC2CCCO2)C2CCCC2)n1C1CC1 (stereo not shown)
Completion: 95.5

Prompt: Give viability at 28.5 h, 10 µM for `CN1CCC[C@H]1C(=O)Nc1cccc2cc[nH]c12`
Completion: 104

====

Can you tell me viability at 28.5 h, 10 µM for the items I'm about to list?
# MEASUREMENT_PROTOCOL: in vitro
# COND: human, hela cells, % viability
Numbers only here, please. The scale is %.

Prompt: Give viability at 28.5 h, 10 µM for OC(CSc1ccc(F)cc1)CN1CCN(c2ccc(C(F)(F)F)cn2)CC1 (stereo not drawn) [CBK074688]
Completion: 91.2

Prompt: Give viability at 28.5 h, 10 µM for COc1ccc(CN2CCC(N3CCCCC3)CC2)c(OC)c1 [CBK261848]
Completion: 103

Prompt: Give viability at 28.5 h, 10 µM for CN1CCN(c2nc3c([nH]2)c(=O)n(C)c(=O)n3C)CC1 [CBK269976]
Completion: 86.1

====

Can you tell me viability at 28.5 h, 10 µM for the items I'm about to list?
# MEASUREMENT_PROTOCOL: in vitro
# COND: human, hela cells, % viability
Numbers only here, please. The scale is %.

Prompt: Give viability at 28.5 h, 10 µM for CCn1ncc(CN2C3CCC2CC(O)(c2cccc(F)c2)C3)c1C (stereo not drawn) [CBK282754]
Completion: 91.6

Prompt: Give viability at 28.5 h, 10 µM for Cc1nc([N+](=O)[O-])c(SCC(O)CN2CCCCC2)[nH]1 (stereo not drawn) [CBK261727]
Completion: 88.7

Prompt: Give viability at 28.5 h, 10 µM for O=C(Nc1cc(Cl)ccc1Cl)C1CN(S(=O)(=O)c2ccccc2)CCN1S(=O)(=O)c1ccccc1 (stereo not drawn) [CBK267004]
Completion: 88.7

====

# MEASUREMENT_PROTOCOL: in vitro
# COND: human, hela cells, % viability
QUANTITY_MEASURED: viability at 28.5 h, 10 µM
The answer consists of two parts: a number and, after it, its unit.

Prompt: Give viability at 28.5 h, 10 µM for FC(F)c1cc([C@@H]2CN(CC3CCOC3)C[C@H]2c2ccccc2)n[nH]1 (stereo partly drawn)
Completion: 98.5%

Prompt: Give viability at 28.5 h, 10 µM for `Cn1ncnc1COc1ccc(S(=O)(=O)NC2CCCC2)cc1`
Completion: 107%

Prompt: Give viability at 28.5 h, 10 µM for COc1ccc2c(c1)C1(CC(=O)N(C)C1=O)C(=O)N2CC(=O)O (stereo not drawn)
Completion: 100%

====

# MEASUREMENT_PROTOCOL: in vitro
# COND: human, hela cells, % viability
QUANTITY_MEASURED: viability at 28.5 h, 10 µM (%)
Numbers only here, please. The scale is %.

Prompt: Give viability at 28.5 h, 10 µM for Cc1ccc(C2C3=C(CC(C)(C)CC3=O)Nc3[nH][nH]c(=O)c32)o1 (stereo not drawn)
Completion: 104

Prompt: Give viability at 28.5 h, 10 µM for `Cn1c([C@H]2CCN(C(=O)c3cnccn3)C2)nc2ccccc21`
Completion: 110

Prompt: Give viability at 28.5 h, 10 µM for `Clc1cc(Nc2ccc3[nH]ccc3c2)n2nccc2n1`
Completion: 84.7

Prompt: Give viability at 28.5 h, 10 µM for OC(CN1CCC(Oc2ccccc2F)CC1)c1cccs1 (stereo not drawn)
Completion: 95.2

Prompt: Give viability at 28.5 h, 10 µM for CCOC(=O)C1CCCN(Cc2ccc(OC)cc2)C1 (stereo not drawn)
Completion: 88.3

Prompt: Give viability at 28.5 h, 10 µM for `COc1ccc(C(=O)NNC(=O)c2cc(OC)cc(OC)c2)cc1`
Completion: 96

Prompt: Give viability at 28.5 h, 10 µM for `Cc1cc(C)n(CCCC(=O)N2C[C@H]3CCc4c[nH]nc4[C@H]3C2)n1`
Completion: 101

Prompt: Give viability at 28.5 h, 10 µM for `O=C(Nc1cccnc1)N1CCc2ccccc2C1`
Completion: 100

Prompt: Give viability at 28.5 h, 10 µM for `CCNC(=O)c1ccc(-c2ccc(C(=O)N(C)C)cc2)nc1`
Completion: 91.7

Prompt: Give viability at 28.5 h, 10 µM for `C=C(C)CNC(=O)c1ccc(C)nc1N1CCOCC1`
Completion: 93.5

Prompt: Give viability at 28.5 h, 10 µM for `COCCNS(=O)(=O)c1cc(OCC(N)=O)c(C)cc1Cl`
Completion: 99.3

Prompt: Give viability at 28.5 h, 10 µM for CC(=O)N1c2ccc(-c3cn4ccc(C)cc4n3)cc2CC1C (stereo not drawn)
Completion: 79.2

Prompt: Give viability at 28.5 h, 10 µM for `Cn1ncc2c(=O)[nH]c(N3CCN(c4cc(C#N)ccn4)CC3)nc21`
Completion: 92.4

Prompt: Give viability at 28.5 h, 10 µM for O=C(c1cc(F)c(F)cc1F)N1CCC2(CCCN(Cc3ccc4ccccc4c3)C2)C1 (stereo not drawn)
Completion: 97.8

Prompt: Give viability at 28.5 h, 10 µM for `CC(C)N1CC[C@@H]2[C@H]1C(=O)NC[C@H](CCC(=O)NCc1ccc(F)cc1)N2C`
Completion: 91.4

Prompt: Give viability at 28.5 h, 10 µM for CC1CCc2c(sc3ncnc(OCC(=O)N4CCOCC4)c23)C1 (stereo not drawn)
Completion: 95.9

Prompt: Give viability at 28.5 h, 10 µM for CCCOCC1CCN(C(=O)Nc2ccc(Oc3cccnc3)cc2)C1 (stereo not drawn)
Completion: 102

Prompt: Give viability at 28.5 h, 10 µM for O=S(=O)(Cc1cccc(C(F)(F)F)c1)c1csc2ccnc(N3CCNCC3)c12 [CBK039166C]
Completion: 92

Prompt: Give viability at 28.5 h, 10 µM for Cc1cc(NC(=O)CN2CCCC2CC(O)c2ccccc2)no1 (stereo not drawn)
Completion: 88.8

Prompt: Give viability at 28.5 h, 10 µM for CCn1c2ccccc2c2cc(NC(=O)CC(C)CC(=O)O)ccc21 (stereo not drawn)
Completion: 103

Prompt: Give viability at 28.5 h, 10 µM for Cc1nn(C)cc1-c1cncn1CC1(N(C)C)CCC(C)CC1 (stereo not drawn)
Completion: 88.9

Prompt: Give viability at 28.5 h, 10 µM for `O=C(CSCCO)Nc1cccc2ccccc12`
Completion: 85.4

Prompt: Give viability at 28.5 h, 10 µM for `CO[C@@]12CC[C@@H](OCC(=O)O)C[C@@H]1N(Cc1ccccc1C)CC2`
Completion: 104

Prompt: Give viability at 28.5 h, 10 µM for CC1(C)CC(=O)c2sc(NC(=O)C3COc4ccccc4O3)nc2C1 (stereo not drawn)
Completion: 112

Prompt: Give viability at 28.5 h, 10 µM for COc1ccc(C(=O)N2CCC3(CCCN(C(=O)c4cc(OC)c(OC)c(OC)c4)C3)C2)cc1OC (stereo not drawn)
Completion: 86.7

Prompt: Give viability at 28.5 h, 10 µM for `CCn1c(SCC(=O)Nc2ccc(Br)cc2F)nnc1-c1ccc(OC)cc1`
Completion: 100

Prompt: Give viability at 28.5 h, 10 µM for O=C(NCC1CCCN1)c1cnn(-c2ccc(Cl)cc2)c1C(F)(F)F (stereo not drawn) [CBK115925C]
Completion: 101

Prompt: Give viability at 28.5 h, 10 µM for `COc1nccnc1OC1CCN(CCCO)CC1`
Completion: 97.6

Prompt: Give viability at 28.5 h, 10 µM for `NCCCNC(=O)c1ccc(-c2cccc(C(F)(F)F)c2)o1`
Completion: 89.4

Prompt: Give viability at 28.5 h, 10 µM for `COC(=O)C(=O)N1CC[C@H]2NC(=O)N(c3ccc(C(C)C)cc3)C(=O)[C@H]21`
Completion: 105
